Listing of recorded Ki by entry.
molecular target: human α-thrombin (Homo sapiens, UniProt P00734)

CPD SMILES: CCC1(CC)OC(=O)Nc2c1cc(C)n(CC(=O)NCc1ccc(N)nc1C)c2=O
RESULT: < 0.1 µM

Proceed to the following item.
Tested on human α-thrombin (Homo sapiens, UniProt P00734), the item `Cc1cc2c(c(=O)n1CC(=O)NCc1cccc(Cl)c1)NC(=O)OC2(C(C)C)C(C)C` showed Ki equal to < 0.1 µM

The measurements presented in this section are drawn from patent US6239132A.
